Data credit: PubChem BioAssay

- Assay comment: HepG2 cytotoxicity, primary screen, cytotoxicity control for P. falciparum antimalarial project, cell-based, ATP luminescence (AID 2303)
- Condition notes: HepG2 viability, 24-48 h, at 10 µM, stronger effect = higher value
Lab note: anything with inhibition below 10% is marked MET; values at 10% or higher are marked NOT MET.

Previously resolved entries follow.
Cc1ccc(CC(C)NCC(O)c2cccc(C#N)c2)cc1 (configuration not stated) :: MET
CC(C)c1ccc(C=CC(=O)NC2CCC(CN3CCC(c4c[nH]c5ccccc45)CC3)CC2)cc1 (configuration not stated) :: NOT MET
COc1ccccc1CC(C)NCC(O)c1cccc(Cl)c1 (configuration not stated) :: NOT MET
S=C(NCCc1ccc(Cl)cc1)N1CCC(CN2CCC(c3c[nH]c4ccccc34)CC2)CC1 :: NOT MET
CC[C@H]1CN2CC[C@H]1C[C@H]2[C@H](O)c1cc(-c2ccc(OC(F)(F)F)cc2)nc2ccc(OC)cc12 :: NOT MET
c1ccc2c(NCCCCCCNc3c4c(nc5ccccc35)CCCC4)c3c(nc2c1)CCCC3 :: NOT MET
CN1C(=O)OC[C@@H]1Cc1ccc2[nH]cc(C3=CCN(Cc4ccccc4)CC3)c2c1 :: MET
CCOc1ccc(Br)cc1/C=C/C(=O)Nc1ccc2c(c1)[C@@H]1CC[C@H]2N1C :: NOT MET
O=C(/C=C/c1cccs1)NC1CCC(CN2CCC(c3c[nH]c4ccccc34)CC2)CC1 (configuration not stated) :: NOT MET
O=C(NCCCCN1CCC(c2ccc3c(c2OCCO)CCCC3)CC1)c1sc(-c2ccc(C(F)(F)F)cc2)nc1CO :: NOT MET

Item `CC[C@H]1CN2CC[C@@H]1C[C@H]2[C@H](O)c1cc(N2CCC(CO)CC2)nc2ccc(OC)cc12` : inhibition beneath 10%, strictly?
MET

Item `Cn1cc(CN2CCC(CCOC(c3ccccc3)c3ccccc3)CC2)cn1` : inhibition beneath 10%, strictly?
NOT MET

Item `C/C=C1/CN2CC[C@H]1C[C@H]2[C@H](O)c1ccnc2ccc(O)cc12` : inhibition beneath 10%, strictly?
MET

Item `OC1(CNCc2ccccc2)CCN(CCc2c[nH]c3ccc(F)cc23)CC1` : inhibition beneath 10%, strictly?
NOT MET

Item `c1ccc2c(NCCCCCCNc3c4ccccc4nc4ccccc34)c3ccccc3nc2c1` : inhibition beneath 10%, strictly?
NOT MET

Item `CCc1ccc(CN2CCC(CN(C(=O)c3ccccc3)c3ccc(Cl)cc3)CC2)cc1` : inhibition beneath 10%, strictly?
NOT MET

Item `CC[C@H]1CN2CCc3cc(OC)c(OC)cc3[C@@H]2C[C@@H]1C[C@H]1NCCc2c1cc(OC)c(O)c2I` : inhibition beneath 10%, strictly?
NOT MET

Item CC(Cc1ccc(-c2nc3ccccc3[nH]2)cc1)NCC(O)c1cccc(C(F)(F)F)c1 (configuration not stated) : inhibition beneath 10%, strictly?
NOT MET

Item CCC1(C)CC(CCNCc2ccccc2O)(c2ccc(C)cc2)CCO1 (configuration not stated) : inhibition beneath 10%, strictly?
MET

Item COc1ccc(C2CNCc3c2cc(OC)c(OC)c3Cl)cc1 (configuration not stated) : inhibition beneath 10%, strictly?
NOT MET

Item `CC(C)CNCc1cccc(-c2ccc(CN(C(=O)c3cccs3)C3CCN(Cc4ccccc4)CC3)cc2)c1` : inhibition beneath 10%, strictly?
NOT MET

Item COC(=O)c1ccc(CC(C)NCC(O)c2cccc(Br)c2)cc1 (configuration not stated) : inhibition beneath 10%, strictly?
MET

Item O=C(NC1CCC(CN2CCC(c3c[nH]c4ccccc34)CC2)CC1)c1[nH]c(=O)[nH]c(=O)c1F (configuration not stated) : inhibition beneath 10%, strictly?
MET
